Values from ChEMBL document CHEMBL1909046

- measurement.target: 5-hydroxytryptamine receptor 4 (Cavia porcellus, UniProt O70528); also: in other assays of this panel Not Active means under 50% inhibition at 10 µM
- Sequence (O70528 whole entry): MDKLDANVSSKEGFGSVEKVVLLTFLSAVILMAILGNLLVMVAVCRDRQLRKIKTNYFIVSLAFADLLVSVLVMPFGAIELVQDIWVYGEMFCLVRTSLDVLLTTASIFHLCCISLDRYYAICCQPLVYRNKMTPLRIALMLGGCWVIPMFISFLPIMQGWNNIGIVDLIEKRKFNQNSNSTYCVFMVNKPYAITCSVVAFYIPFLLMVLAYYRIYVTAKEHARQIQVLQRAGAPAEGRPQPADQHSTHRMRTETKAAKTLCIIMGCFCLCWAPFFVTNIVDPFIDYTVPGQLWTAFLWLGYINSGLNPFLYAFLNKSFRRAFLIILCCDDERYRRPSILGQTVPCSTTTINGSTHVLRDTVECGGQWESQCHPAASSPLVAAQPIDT
- Assay type: cell membranes, Dunkin-Hartley, Striatum, Membrane
endpoint.label: IC50

A selection of reference data follows.
CCN(CC)N=O ... Not Active
c1ccc(Cn2ccnc2)cc1 ... Not Active
CC[C@@]1(O)C(=O)OCc2c1cc1n(c2=O)Cc2cc3c(CN(C)C)c(O)ccc3nc2-1 ... Not Active
CO[C@H]1O[C@@H]2O[C@@]3(C)CC[C@H]4[C@H](C)CC[C@@H]([C@H]1C)[C@@]24OO3 ... Not Active

Your task in this section: give IC50 for each listed record.
1. Oc1ccccc1
2. C#C[C@]1(O)CC[C@H]2[C@@H]3[C@H](C)CC4=C(CCC(=O)C4)[C@H]3CC[C@@]21C
3. O=C(O)CCc1nc(-c2ccccc2)c(-c2ccccc2)o1
4. Cc1cnc(NC(=O)C2=C(O)c3ccccc3S(=O)(=O)N2C)s1

1. Not Active
2. Not Active
3. Not Active
4. Not Active

* * *

- measurement.target: Cytochrome P450 2C9 (Homo sapiens); also: in other assays of this panel Not Active means under 50% inhibition at 10 µM
- Sequence (P11712 whole entry): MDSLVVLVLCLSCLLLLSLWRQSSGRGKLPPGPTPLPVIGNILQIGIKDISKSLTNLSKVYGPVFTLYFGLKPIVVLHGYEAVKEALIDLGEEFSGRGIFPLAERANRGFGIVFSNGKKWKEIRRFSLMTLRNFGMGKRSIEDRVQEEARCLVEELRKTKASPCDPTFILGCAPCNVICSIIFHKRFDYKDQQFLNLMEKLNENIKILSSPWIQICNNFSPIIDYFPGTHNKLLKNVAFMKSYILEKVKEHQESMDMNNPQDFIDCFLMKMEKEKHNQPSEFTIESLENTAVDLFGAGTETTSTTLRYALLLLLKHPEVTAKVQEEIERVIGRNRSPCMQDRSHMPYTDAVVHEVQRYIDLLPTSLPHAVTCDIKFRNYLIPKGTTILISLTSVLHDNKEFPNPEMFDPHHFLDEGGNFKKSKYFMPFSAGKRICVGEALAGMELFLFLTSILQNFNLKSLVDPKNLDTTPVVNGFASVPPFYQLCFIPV
- condition.notes: bti-tn-5b1-4
endpoint.label: IC50

c1ccc2sc(SSc3nc4ccccc4s3)nc2c1 [BENZOTHIAZYL DISULFIDE] ... Not Active
NC(=O)CN1CCCC1=O ... Not Active
O=C(O)c1cc(/N=N/c2ccc(S(=O)(=O)Nc3ccccn3)cc2)ccc1O ... Not Active

* * *

- procedure.summary: DRUGMATRIX: Glutamate, Kainate radioligand binding (ligand: [3H] Kainic acid)
- Format: cell membranes, Rattus norvegicus, Wistar, Brain, Membrane
- condition.notes: Not Active = under 50% inhibition at 10 µM
endpoint.label: IC50

C=C(Cl)Cl ... Not Active
CCN(CCO)CCCC(C)Nc1ccnc2cc(Cl)ccc12 (stereo not drawn) [HYDROXYCHLOROQUINE] ... Not Active
Cc1ccc(Cl)c(Nc2ccccc2C(=O)O)c1Cl ... Not Active

* * *

- measurement.target: D(4) dopamine receptor (Homo sapiens, UniProt P21917)
- Sequence (P21917 whole entry): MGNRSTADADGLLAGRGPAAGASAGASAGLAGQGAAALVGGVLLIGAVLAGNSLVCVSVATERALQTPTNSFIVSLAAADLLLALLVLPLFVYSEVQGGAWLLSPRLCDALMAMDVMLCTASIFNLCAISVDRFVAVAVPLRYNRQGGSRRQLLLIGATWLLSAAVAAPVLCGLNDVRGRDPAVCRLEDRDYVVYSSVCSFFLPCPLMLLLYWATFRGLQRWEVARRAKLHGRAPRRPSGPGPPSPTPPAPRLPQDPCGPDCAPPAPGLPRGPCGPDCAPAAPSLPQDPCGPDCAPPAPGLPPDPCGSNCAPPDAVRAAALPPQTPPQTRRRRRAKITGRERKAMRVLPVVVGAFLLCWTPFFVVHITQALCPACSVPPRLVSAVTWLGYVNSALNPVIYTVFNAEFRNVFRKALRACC
- procedure.summary: DRUGMATRIX: Dopamine D4.2 radioligand binding (ligand: [3H] Spiperone)
- Type: cell membranes, CHO-K1, Membrane
- condition.notes: cho-k1; Not Active = under 50% inhibition at 10 µM
endpoint.label: IC50

Cc1ccnc2c1NC(=O)c1cccnc1N2C1CC1 ... Not Active
O=C1c2ccccc2C(=O)C1c1ccccc1 ... Not Active
Oc1ccccc1 ... Not Active
